TESTED_SYSTEM: MBP-FoxP1dN (Mus musculus, UniProt P58462 326-579)
Sequence: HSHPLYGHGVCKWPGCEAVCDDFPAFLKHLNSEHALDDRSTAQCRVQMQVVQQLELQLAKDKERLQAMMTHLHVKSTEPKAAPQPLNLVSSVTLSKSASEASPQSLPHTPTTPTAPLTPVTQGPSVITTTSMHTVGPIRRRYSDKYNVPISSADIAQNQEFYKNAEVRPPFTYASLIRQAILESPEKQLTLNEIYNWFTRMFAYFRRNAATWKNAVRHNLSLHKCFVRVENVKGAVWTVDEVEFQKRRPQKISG
MEASUREMENT_PROTOCOL: PD-seq (MBP pull-down with sequencing); 20 mM Tris-HCl pH 7.5, 100 mM NaCl, 1.5 mM MgCl2, 0.4 uM protein, 0.1 uM dsDNA library, 30 min, room temperature, amylose pull-down; high values mean tight binding
REPORTED_CONDITIONS: protein: recombinant; tags: His6-MBP; chain copies: 2; dsDNA, one strand shown
Whole data set: some 16,000 sequences, median “rpm ratio (pull-down/input)” near 0.94, cut for the highest 2% near 1.7. The sample as a whole holds a higher share of the highest values than the screen did.
Catalogue of binding signal values

Worked examples follow.
Form field: reported binding signal of GATGATTGTTCTCCCAGCTGATGAATTGTATCTGTCGAGTAAACAAATTTTCCTAATCTTTCTGTTCAAGCGCCATCTAC 1.08 RPM ratio (pull-down/input)

Form field: reported binding signal of GATGATTGTTCTCCCAGCTGATGAATTCGTGTATTCGAGTAAACAAATTTTCCTAATCTTTCTGTTCAAGCGCCATCTAC 1.35 RPM ratio (pull-down/input)

***
Form field: reported binding signal of GATGATTGTTCTCCCAGCTGATGAATTGTGTATTTCGAGTAAACAAATTTTCCTAATCTTTCTGTTCAAGCGCCATCTAC 1.75 RPM ratio (pull-down/input)

Form field: reported binding signal of GATGATTGTTCTCCCAGCTGATGAATTGTATTTGTCGAGTAAACAAATTTTCCTAATCTTTCTGTTCAAGCGCCATCTAC 2.5 RPM ratio (pull-down/input)
